Hey, just so you know, these numbers are from the Immune Epitope Database (IEDB).

biological target: HLA-B*15:01; test: IEDB peptide-MHC binding, purified MHC/competitive/fluorescence; filed as Kd, often an IC50 or EC50 that approximates it; bounds were set here for any values at or beyond the usual limits of such assays; conditions: source organism: Vibrio vulnificus YJ016
measured endpoint: Kd (nM)
Give just the number in nM; leave the unit off.

Please fill in: Kd reported for NAFGWENAY = 1320

----------
molecular target: HLA-A*02:03; test: IEDB peptide-MHC binding, purified MHC/competitive/radioactivity; filed as Kd, often an IC50 or EC50 that approximates it; bounds were set here for any values at or beyond the usual limits of such assays; conditions: source organism: Vaccinia virus WR
# note: boundary value 0.05 µM maps to condition not met; Kd below it maps to condition met

**Q:** Dear colleague, could you confirm whether Kd of SVDAMIHKT falls below 0.05 µM? Thanks.
**A:** condition not met

**Q:** Dear colleague, could you confirm whether Kd of NMKPNFWSRI falls below 0.05 µM? Thanks.
**A:** condition not met

**Q:** Dear colleague, could you confirm whether Kd of ELKHGLLDSI falls below 0.05 µM? Thanks.
**A:** condition not met

**Q:** Dear colleague, could you confirm whether Kd of EIARIENEM falls below 0.05 µM? Thanks.
**A:** condition not met

**Q:** Dear colleague, could you confirm whether Kd of SLALKNSQA falls below 0.05 µM? Thanks.
**A:** condition not met

**Q:** Dear colleague, could you confirm whether Kd of GMSIVCIVA falls below 0.05 µM? Thanks.
**A:** condition not met

**Q:** Dear colleague, could you confirm whether Kd of MVDVSMMSM falls below 0.05 µM? Thanks.
**A:** condition not met

**Q:** Dear colleague, could you confirm whether Kd of YLSKEDRII falls below 0.05 µM? Thanks.
**A:** condition not met

**Q:** Dear colleague, could you confirm whether Kd of YIIRVTTEL falls below 0.05 µM? Thanks.
**A:** condition met

**Q:** Dear colleague, could you confirm whether Kd of IVAAVIIMA falls below 0.05 µM? Thanks.
**A:** condition not met

**Q:** Dear colleague, could you confirm whether Kd of VLQQNNSFI falls below 0.05 µM? Thanks.
**A:** condition not met

**Q:** Dear colleague, could you confirm whether Kd of IVNTTYDFL falls below 0.05 µM? Thanks.
**A:** condition not met

**Q:** Dear colleague, could you confirm whether Kd of KTEHCDDFM falls below 0.05 µM? Thanks.
**A:** condition not met

**Q:** Dear colleague, could you confirm whether Kd of RTRCKYVGCT falls below 0.05 µM? Thanks.
**A:** condition not met

**Q:** Dear colleague, could you confirm whether Kd of PIPMSRLFM falls below 0.05 µM? Thanks.
**A:** condition not met

**Q:** Dear colleague, could you confirm whether Kd of SLFIESSICL falls below 0.05 µM? Thanks.
**A:** condition not met

**Q:** Dear colleague, could you confirm whether Kd of ILHNIYRLFT falls below 0.05 µM? Thanks.
**A:** condition met

**Q:** Dear colleague, could you confirm whether Kd of DILQMREIIT falls below 0.05 µM? Thanks.
**A:** condition not met

**Q:** Dear colleague, could you confirm whether Kd of GVEVRYIDI falls below 0.05 µM? Thanks.
**A:** condition not met

**Q:** Dear colleague, could you confirm whether Kd of SMMVILPDKI falls below 0.05 µM? Thanks.
**A:** condition met

**Q:** Dear colleague, could you confirm whether Kd of CLEAKTHFST falls below 0.05 µM? Thanks.
**A:** condition not met

**Q:** Dear colleague, could you confirm whether Kd of SMSQELAELL falls below 0.05 µM? Thanks.
**A:** condition not met

**Q:** Dear colleague, could you confirm whether Kd of TIDNIVTSL falls below 0.05 µM? Thanks.
**A:** condition not met

**Q:** Dear colleague, could you confirm whether Kd of LLNMRDLIVT falls below 0.05 µM? Thanks.
**A:** condition not met

**Q:** Dear colleague, could you confirm whether Kd of FMYTKHSML falls below 0.05 µM? Thanks.
**A:** condition met

**Q:** Dear colleague, could you confirm whether Kd of FISIYSRPKI falls below 0.05 µM? Thanks.
**A:** condition not met

**Q:** Dear colleague, could you confirm whether Kd of RVKQWVMDT falls below 0.05 µM? Thanks.
**A:** condition met

**Q:** Dear colleague, could you confirm whether Kd of STVDVRNIVT falls below 0.05 µM? Thanks.
**A:** condition not met

**Q:** Dear colleague, could you confirm whether Kd of IILFQNNDI falls below 0.05 µM? Thanks.
**A:** condition not met

**Q:** Dear colleague, could you confirm whether Kd of FVSTMPVET falls below 0.05 µM? Thanks.
**A:** condition not met

**Q:** Dear colleague, could you confirm whether Kd of FLFWFLKSGA falls below 0.05 µM? Thanks.
**A:** condition met

**Q:** Dear colleague, could you confirm whether Kd of PVIVPDIKL falls below 0.05 µM? Thanks.
**A:** condition not met

**Q:** Dear colleague, could you confirm whether Kd of LTDVEKRIL falls below 0.05 µM? Thanks.
**A:** condition not met

**Q:** Dear colleague, could you confirm whether Kd of ILANERYRSA falls below 0.05 µM? Thanks.
**A:** condition met

**Q:** Dear colleague, could you confirm whether Kd of PLTGNNTITT falls below 0.05 µM? Thanks.
**A:** condition not met

**Q:** Dear colleague, could you confirm whether Kd of AVLSEYETMV falls below 0.05 µM? Thanks.
**A:** condition met

**Q:** Dear colleague, could you confirm whether Kd of IPFIAYFVLM falls below 0.05 µM? Thanks.
**A:** condition not met

**Q:** Dear colleague, could you confirm whether Kd of SIDHCSSFI falls below 0.05 µM? Thanks.
**A:** condition met

**Q:** Dear colleague, could you confirm whether Kd of DIDLLFNEKL falls below 0.05 µM? Thanks.
**A:** condition not met

**Q:** Dear colleague, could you confirm whether Kd of NMINKLYGYA falls below 0.05 µM? Thanks.
**A:** condition met

**Q:** Dear colleague, could you confirm whether Kd of GIFVDTMSI falls below 0.05 µM? Thanks.
**A:** condition not met

**Q:** Dear colleague, could you confirm whether Kd of IIGEPIIVA falls below 0.05 µM? Thanks.
**A:** condition not met

**Q:** Dear colleague, could you confirm whether Kd of YQSFLFWFL falls below 0.05 µM? Thanks.
**A:** condition met

**Q:** Dear colleague, could you confirm whether Kd of IIDLLLPST falls below 0.05 µM? Thanks.
**A:** condition not met
